Biological target: human orexin-2 receptor (Homo sapiens, UniProt O43614)
Construct: expressed in transfected cells; host or cells: CHO (Chinese hamster ovary) cells, kept under G418 selection
Sequence (O43614 1-444): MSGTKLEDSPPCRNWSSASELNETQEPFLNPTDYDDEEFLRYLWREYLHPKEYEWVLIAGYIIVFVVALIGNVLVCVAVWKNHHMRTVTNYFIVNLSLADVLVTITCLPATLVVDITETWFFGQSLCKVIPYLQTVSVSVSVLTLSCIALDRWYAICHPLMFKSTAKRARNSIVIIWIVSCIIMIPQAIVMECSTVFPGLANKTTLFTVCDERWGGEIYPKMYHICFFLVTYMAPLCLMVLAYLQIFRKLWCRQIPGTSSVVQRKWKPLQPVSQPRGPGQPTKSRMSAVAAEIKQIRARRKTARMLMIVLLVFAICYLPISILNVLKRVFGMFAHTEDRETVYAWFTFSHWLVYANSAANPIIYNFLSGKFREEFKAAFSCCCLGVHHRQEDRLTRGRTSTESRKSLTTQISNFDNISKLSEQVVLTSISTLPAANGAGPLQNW
Assay: Intracellular calcium measurement (FLIPR Tetra), orexin receptor antagonistic activity, OX2
Assay type: cell-based
Conditions: CHO cells expressing human orexin-2 receptor, 3 nM orexin-A, conditions A
Experimental: The orexin receptor antagonistic activity of the compounds of formula (I) is determined in accordance with one of the following experimental methods. […] Within the Fluorescent Imaging Plate Reader (FLIPR Tetra, Molecular Devices), antagonists are added to the plate in a volume of 10 μl/well, incubated for 10 min and finally 10 μl/well of agonist is added. […] The calculated IC50 values of the compounds may fluctuate depending on the daily cellular assay performance. […]
experimental_endpoint: pIC50
Answers are plain numbers, as −log10 of the molar value.

Sample COc1ccc(C(O)CN(CC2CC2)C(=O)c2nc(Br)sc2-c2cccc(C)c2)cc1OC (centres unmarked) — what was its pIC50?
6.52

Sample COc1ccc(C(O)CN(CC2CC2)C(=O)c2ncsc2-c2cccc(C(F)(F)F)c2)cc1OC (centres unmarked) — what was its pIC50?
6.26

Sample COc1ccc(C(O)CN(CC2CC2)C(=O)c2c(-c3ccccc3)nc3ccc(Cl)cn23)cc1OC (centres unmarked) — what was its pIC50?
6.58

Sample CCc1ccc(-c2sc(C)nc2C(=O)N(CCc2ccc(OC)c(OC)c2)CC2CC2)cc1 — what was its pIC50?
7.82

Sample COc1ccc(C(O)CN(CC2CC2)C(=O)c2nc(N(C)C)sc2-c2cccc(C)c2)cc1OC (centres unmarked) — what was its pIC50?
6.80

List the reported pIC50 of each molecule below.
1. COc1ccc(CCN(CC2CC2)C(=O)c2ncsc2-c2ccccc2F)cc1OC
2. COc1ccc(C(O)CN(CC2CC2)C(=O)c2nccnc2-c2ccccc2)cc1OC (centres unmarked)
3. COc1cccc(-c2oc(C)nc2C(=O)N(CCc2ccc(OC)c(OC)c2)CC2CC2)c1
4. COc1ccc(CCN(CC2CC2)C(=O)c2nc(C)sc2-c2cccc(C#N)c2)cc1OC
5. COc1ccc(CCN(CC2CC2)C(=O)c2nc(C)sc2-c2ccccc2)cc1OC
6. COc1ccc(CCN(CC2CC2)C(=O)c2nc(C)oc2-c2cccc(C(F)(F)F)c2)cc1OC

1. 8.30
2. 7.39
3. 7.70
4. 7.40
5. 8.40
6. 7.74

* * *

Biological target: human orexin-2 receptor (Homo sapiens, UniProt O43614)
Construct: expressed in transfected cells; host or cells: CHO (Chinese hamster ovary) cells, kept under G418 selection
Sequence (O43614 1-444): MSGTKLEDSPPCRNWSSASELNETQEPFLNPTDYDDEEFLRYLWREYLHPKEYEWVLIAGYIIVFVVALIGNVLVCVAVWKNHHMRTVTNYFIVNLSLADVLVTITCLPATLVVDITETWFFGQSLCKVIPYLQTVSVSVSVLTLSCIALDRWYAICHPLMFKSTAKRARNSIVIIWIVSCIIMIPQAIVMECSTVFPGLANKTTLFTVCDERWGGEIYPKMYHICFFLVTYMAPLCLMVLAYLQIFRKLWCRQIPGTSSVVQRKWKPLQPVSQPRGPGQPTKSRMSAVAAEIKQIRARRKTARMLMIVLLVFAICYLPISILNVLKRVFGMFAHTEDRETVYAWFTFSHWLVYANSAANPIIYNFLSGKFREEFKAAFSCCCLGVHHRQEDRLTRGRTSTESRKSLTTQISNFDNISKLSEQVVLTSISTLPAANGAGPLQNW
Assay: Intracellular calcium measurement (FLIPR Tetra), orexin receptor antagonistic activity, OX2
Format: cell-based
Conditions: CHO cells expressing human orexin-2 receptor, 3 nM orexin-A, conditions B, normalized (*) using IC50 of on-plate reference compound
Field: pIC50. Provide a value for each of the compounds that follow.
Answers are plain numbers, as −log10 of the molar value.

Sample Cc1cccc(-c2sc(N)nc2C(=O)N(CCc2c[nH]c3cc(F)ccc23)CC2CC2)c1 [Example 233] — what was its pIC50?
7.66

List the reported pIC50 of each compound below.
1. Cc1cncc(-c2cccnc2C(=O)N(CCc2c[nH]c3ccc(F)cc23)CC2CC2)c1 [Example 402]
2. COc1ccc(-c2cccnc2C(=O)N(CCc2c[nH]c3ccc(F)cc23)CC(F)(F)F)cn1 [Example 312]
3. Cc1ccc(-c2sc(N(C)C)nc2C(=O)N(CCc2nc3cc(C)c(C)cc3[nH]2)CC2CC2)cc1C [Example 377]
4. COc1cccc2c(CCN(CC3CC3)C(=O)c3nccnc3-c3cccc(C(F)(F)F)c3)c[nH]c12 [Example 444]
5. Cc1nc(C(=O)N(CCc2c[nH]c3ccc(F)cc23)CC2CC2)c(-c2cnc3ccccc3c2)s1 [Example 428]

1: 7.14; 2: 7.12; 3: 6.58; 4: 6.67; 5: 7.74

List the reported pIC50 of each compound below.
1. COCCOc1cccc(-c2sc(C)nc2C(=O)N(CCc2c[nH]c3ccccc23)CC(=O)OC)c1 [Example 587]
2. O=C(c1cncnc1-c1ccccc1)N(CCc1c[nH]c2cc(F)c(Cl)cc12)CC1CC1 [Example 471]
3. Cc1ccc(-c2nccnc2C(=O)N(CCc2c[nH]c3cc(Cl)ccc23)CC2CC2)cc1C [Example 331]
4. COc1cccc(-c2ncncc2C(=O)N(CCc2c[nH]c3ccccc23)CC2CC2)c1 [Example 506]

1: 7.42; 2: 7.60; 3: 7.66; 4: 7.82

List the reported pIC50 of each compound below.
1. Cc1ccc(-c2nccnc2C(=O)N(CCc2cn(C)c3ccccc23)CC2CC2)cc1C [Example 330]
2. COc1ccc2[nH]cc(CC(C)N(CC3CC3)C(=O)c3nc(C)sc3-c3ccc(OC)nc3)c2c1 (racemic) [Example 385]
3. O=C(c1cncnc1-c1cccc(F)c1)N(CCc1c[nH]c2ccccc12)CC1CC1 [Example 510]
4. Cc1ccc(-c2nccnc2C(=O)N(CCN)CCc2c[nH]c3ccc(F)cc23)cc1C [Example 434]
5. COc1ccc(-c2sc(C)nc2C(=O)N(CCc2c[nH]c3ccc(F)cc23)CC(F)F)cn1 [Example 307]
6. COc1ccc(-c2sc(C)nc2C(=O)N(CCc2cn(C)c3ccccc23)CC2CC2)cn1 [Example 341]

[8.10, 7.60, 7.60, 6.09, 7.70, 7.44]

* * *

Target: human orexin-1 receptor (Homo sapiens, UniProt O43613)
Construct: expressed in transfected cells; host or cells: CHO (Chinese hamster ovary) cells, kept under G418 selection
Sequence (O43613 1-425): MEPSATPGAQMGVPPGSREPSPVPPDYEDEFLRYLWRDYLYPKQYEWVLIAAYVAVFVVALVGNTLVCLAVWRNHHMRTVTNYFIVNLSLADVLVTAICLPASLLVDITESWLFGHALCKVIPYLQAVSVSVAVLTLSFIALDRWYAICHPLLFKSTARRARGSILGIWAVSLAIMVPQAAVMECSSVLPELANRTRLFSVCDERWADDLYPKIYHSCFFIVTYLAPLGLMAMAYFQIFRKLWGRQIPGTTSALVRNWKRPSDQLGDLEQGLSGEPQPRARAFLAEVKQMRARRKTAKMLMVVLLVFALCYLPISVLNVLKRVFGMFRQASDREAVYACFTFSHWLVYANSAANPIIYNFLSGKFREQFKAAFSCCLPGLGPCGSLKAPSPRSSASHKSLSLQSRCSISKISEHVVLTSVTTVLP
Assay: Intracellular calcium measurement (FLIPR Tetra), orexin receptor antagonistic activity, OX1
Type: cell-based
Conditions: CHO cells expressing human orexin-1 receptor, 3 nM orexin-A, conditions B
Threshold-based label: IC50 under 400 nM gives true, IC50 not under 400 nM gives false.

Example entries begin here.
Consider COc1cc(CCN(CC2CC2)C(=O)c2nc(C)sc2-c2ccc(C)c(C)c2)ccc1O . Does its IC50 lie strictly below 400 nM?
false

Consider Cc1nc(C(=O)N(CCc2ccc3c(c2)OCCO3)CC2CC2)c(-c2ccc(C)c(C)c2)s1 . Does its IC50 lie strictly below 400 nM?
false

Consider COc1ccc(CCN(CC2CC2)C(=O)c2nc(N)sc2-c2cccc(C)c2)cc1SC . Does its IC50 lie strictly below 400 nM?
true

Consider COCCN(CCc1ccc(OC)c(OC)c1)C(=O)c1nc(N)sc1-c1cccc(C)c1 . Does its IC50 lie strictly below 400 nM?
true

Consider COc1cccc(-c2ncccc2C(=O)N(CCc2ccc(OC)c(OC)c2)CC2CC2)c1 . Does its IC50 lie strictly below 400 nM?
true

---
Consider Cc1cccc(-c2sc(N)nc2C(=O)N(CCc2c[nH]c3ccc(Br)cc23)CC2CC2)c1 . Does its IC50 lie strictly below 400 nM?
true

Consider COc1ccc(CCN(CC2CC2)C(=O)c2cccnc2-c2cccc(C)c2)cc1OC . Does its IC50 lie strictly below 400 nM?
true
